Target: Mannose-6-phosphate isomerase (Homo sapiens) (UniProt P34949)
Sequence (P34949 whole entry, looked up): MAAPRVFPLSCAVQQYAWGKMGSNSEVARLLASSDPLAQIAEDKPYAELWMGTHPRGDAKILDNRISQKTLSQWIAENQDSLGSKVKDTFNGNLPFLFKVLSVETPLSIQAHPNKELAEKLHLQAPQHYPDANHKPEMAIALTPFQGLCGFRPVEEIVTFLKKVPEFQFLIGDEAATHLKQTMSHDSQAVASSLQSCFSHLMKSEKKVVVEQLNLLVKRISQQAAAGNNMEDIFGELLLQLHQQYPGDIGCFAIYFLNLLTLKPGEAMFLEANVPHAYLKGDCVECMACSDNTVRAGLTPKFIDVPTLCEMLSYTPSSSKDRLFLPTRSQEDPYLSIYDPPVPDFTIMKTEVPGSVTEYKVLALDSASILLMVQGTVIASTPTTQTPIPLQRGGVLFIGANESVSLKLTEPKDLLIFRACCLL
Assay: MPI enzyme activity enhancement – biochemical, fluorescence intensity, near-Km mannose 6-phosphate, primary screen (AID 1214)
Details: purified human PMI, coupled resazurin fluorescence, 20 min; at 20 µM; active compounds read high; 1 = vehicle control, 0 substrate-free wells
Hit rate of the full screen: of about 190,000 compounds, about 10 (0.005%) were called active. Only a sample is shown.
Recorded metric: activation factor

Compound	activation factor
O=c1c2sccc2nc(SCc2cc(=O)n3ccccc3n2)n1-c1ccc(Br)cc1	0.9 (inactive)
Cc1c(C(=O)Nc2cccc(Cl)c2)cn2c(nc3ccccc32)c1C#N	1.1 (inactive)
O=C(Nc1nnc(SCc2ccccc2Cl)s1)c1cccc([N+](=O)[O-])c1	0.9 (inactive)
CNC(=O)NC(=O)CSc1nnc(-c2ccc(F)cc2)n1CC1CCCO1 (stereo unspecified)	1 (inactive)
Nc1cc(C(F)(F)F)ccc1N1CCOCC1	1 (inactive)

Here is another compound to look at.
Challenge: Please look at CN(C)S(=O)(=O)c1ccc(NC(=O)N2CCOCC2)cc1 and tell me its recorded activation factor on Mannose-6-phosphate isomerase (Homo sapiens) (UniProt P34949).
Response given: 1 (inactive)
